ASSAYED_TARGET: UniProtKB Q9UKP6
Sequence (Q9UKP6 whole entry): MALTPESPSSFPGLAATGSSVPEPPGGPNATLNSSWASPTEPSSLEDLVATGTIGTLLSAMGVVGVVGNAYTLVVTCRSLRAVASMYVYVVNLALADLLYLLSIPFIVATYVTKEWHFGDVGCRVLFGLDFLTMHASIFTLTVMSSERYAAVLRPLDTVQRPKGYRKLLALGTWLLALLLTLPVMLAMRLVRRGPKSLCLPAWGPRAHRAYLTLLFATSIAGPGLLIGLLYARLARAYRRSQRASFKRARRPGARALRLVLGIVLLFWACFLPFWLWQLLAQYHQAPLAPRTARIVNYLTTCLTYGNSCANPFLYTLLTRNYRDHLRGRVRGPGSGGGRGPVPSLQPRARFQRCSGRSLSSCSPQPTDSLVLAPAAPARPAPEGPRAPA
METHOD: Displacement of [125I]U2 from human UT receptor in RMS13 cells after 2.5 hrs
Record form. Attribute: pKi. Fill in for each entry.
Numbers only, as −log10 of the molar value.

Sample answers from the record:
>>> value_reported("O=C(NCC1CCN(C(=O)c2ccccc2)CC1)c1cc(Cl)ccc1C1CCN(CCN2C(=O)COc3ccccc32)CC1")
6.80
>>> value_reported("CC(C)(C)CC(=O)N1CCC(CNC(=O)c2cc(Cl)ccc2C2CCN(CCN3C(=O)COc4ccccc43)CC2)CC1")
7.57
>>> value_reported("CC(C)(C)OC(=O)N1CCC(CCNC(=O)c2cc(Cl)ccc2C2CCN(CCN3C(=O)COc4ccccc43)CC2)CC1")
7.11

Alright, here's another compound for you.
# input Identify the measured pKi of `CC(C)(C)OC(=O)N1CCN(CCNC(=O)c2cc(Cl)ccc2C2CCN(CCN3C(=O)COc4ccccc43)CC2)CC1` for UniProtKB Q9UKP6.
# output 7.19

---

METHOD: Cmax in rat at 2 mg/kg, iv
Format: ADME, organism-based
Set-up: dose 2 mg/kg, route intravenous
CONDITION_SET: in vivo
OBSERVATION_TYPE: Cmax (ng/mL)
One number for each entry, in ng/mL.

# input Could you tell me which Cmax is on file for `CC(C)(C)OC(=O)N1CCN(CCNC(=O)c2cc(Cl)ccc2C2CCN(CCN3C(=O)COc4ccccc43)CC2)CC1` ?
# output 553

---

ASSAYED_TARGET: Urotensin-2 receptor (Rattus norvegicus, UniProt P49684)
Sequence (P49684 whole entry): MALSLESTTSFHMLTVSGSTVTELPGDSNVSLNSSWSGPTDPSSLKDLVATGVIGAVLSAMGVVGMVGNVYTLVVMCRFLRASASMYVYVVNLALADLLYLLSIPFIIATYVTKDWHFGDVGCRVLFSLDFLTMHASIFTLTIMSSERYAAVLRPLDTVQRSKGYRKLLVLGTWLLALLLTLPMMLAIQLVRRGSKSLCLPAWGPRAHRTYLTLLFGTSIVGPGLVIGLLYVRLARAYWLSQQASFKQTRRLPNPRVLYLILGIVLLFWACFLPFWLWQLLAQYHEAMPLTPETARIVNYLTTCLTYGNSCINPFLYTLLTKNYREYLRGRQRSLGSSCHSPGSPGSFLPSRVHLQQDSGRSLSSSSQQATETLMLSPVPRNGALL
METHOD: Antagonist activity at rat UT receptor transfected in CHOK1 cells assessed as calcium mobilization by FLIPR method
OBSERVATION_TYPE: IC50 (µM)
One number for each entry, in µM.

Sample answers from the record:
>>> value_reported("CN(CCc1ccccc1)C(=O)C1(c2ccccc2)CCN(CCN2C(=O)COc3ccccc32)CC1")
12
>>> value_reported("CC(C)(C)OC(=O)N1CCN(CCNC(=O)c2cc(Cl)ccc2C2CCN(CCN3C(=O)COc4ccccc43)CC2)CC1")
0.01
>>> value_reported("CN(CCCc1ccccc1)C(=O)C1(c2ccccc2)CCN(CCN2C(=O)COc3ccccc32)CC1")
9.1

# input Could you tell me which IC50 is on file for `O=C1COc2ccccc2N1CCN1CCC(C(=O)NCc2ccccc2)(c2ccccc2)CC1` ?
# output 43

The values you see were collected from ChEMBL document CHEMBL1137625.
